experimental.target: T. versicolor laccase (Trametes versicolor)
Sequence (Q12718 21-519): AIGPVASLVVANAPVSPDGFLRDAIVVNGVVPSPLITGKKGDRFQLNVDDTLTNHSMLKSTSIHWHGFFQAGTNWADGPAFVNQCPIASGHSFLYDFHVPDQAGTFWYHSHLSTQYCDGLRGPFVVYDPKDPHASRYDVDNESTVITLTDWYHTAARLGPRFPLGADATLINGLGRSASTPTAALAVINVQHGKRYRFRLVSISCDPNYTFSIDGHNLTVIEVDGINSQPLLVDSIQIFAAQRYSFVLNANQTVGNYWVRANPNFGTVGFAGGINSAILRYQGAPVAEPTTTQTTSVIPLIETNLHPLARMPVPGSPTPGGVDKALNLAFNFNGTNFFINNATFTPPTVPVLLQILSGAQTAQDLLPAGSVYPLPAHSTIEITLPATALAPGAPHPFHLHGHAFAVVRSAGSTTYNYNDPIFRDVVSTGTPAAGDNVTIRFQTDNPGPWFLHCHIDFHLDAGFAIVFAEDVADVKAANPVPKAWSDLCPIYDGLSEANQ
assay.remarks: Laccase activity assay (L-DOPA substrate), T. versicolor
Assay type: biochemical
condition.details: Ki from IC50 by Cheng–Prusoff; 0.01% Triton X-100
Ki listing for selected compounds.

| compound | experimental.target | result.unit | Ki |
| --- | --- | --- | --- |
| [NH4+].[NH4+].[SH-].[SH-].[S]=[Mo]=[S] [compound 28, ammonium tetrathiomolybdate (ATMD)] | T. versicolor laccase (Trametes versicolor) | µM | 12.3 |
| [N-]=[N+]=[N-].[Na+] [compound 27, sodium azide] | T. versicolor laccase (Trametes versicolor) | µM | 4.2 |

meta.source: paper PMC8707586
